Test system: rodent lifetime carcinogenesis bioassay, tumor incidence TD50
method description: carcinogenic potency in animals, long-term in vivo studies, CPDB compilation (AID 1745844)
condition context: monkey; strain Cynomolgus [Macaca fascicularis]; both sexes; in feed; site: liver; lesion: hemangiosarcoma; dosed 258 weeks; study length 1208 weeks
metric: TD50

Given the compound CCOC(N)=O , what is its reported TD50?
95 mg/kg/day

---

Test system: rodent lifetime carcinogenesis bioassay, tumor incidence TD50
method description: carcinogenic potency in animals, long-term in vivo studies, CPDB compilation (AID 1745844)
condition context: rat; strain Fischer 344; females; inhaled; site: mammary gland; lesion: adenocarcinoma; dosed 52 weeks; study length 104 weeks
metric: TD50

Given the molecule C=CCl , what is its reported TD50?
38 mg/kg/day

Value source: PubChem BioAssay AID1745844
